- Experiment: Plasma concentration in rats after oral administration (HPLC)
- Measurement Setup: rat, plasma, po, 100 mg/kg
Listing of entries alongside the reported concentration at 1 h.
Reported Property: concentration at 1 h (ng/mL)

Molecule	Reported Property	Recorded Result
N=C(NO)c1cccc(CC(NS(=O)(=O)c2ccc3ccccc3c2)C(=O)N2Cc3ccccc3CC2C(=O)O)c1 (racemic) [Compound 190, hydroiodide]	concentration at 1 h	574
N=C(N)c1cccc(CC(NS(=O)(=O)c2ccc3ccccc3c2)C(=O)N2Cc3ccccc3CC2C(=O)O)c1 (racemic)	concentration at 1 h	260
N=C(N)c1cccc(CC(NS(=O)(=O)c2ccc3ccccc3c2)C(=O)N2CCCCC2C(=O)O)c1 (racemic)	concentration at 1 h	50

* * *

- Experiment: Plasma concentration in rats after intravenous administration (HPLC)
- Measurement Setup: rat, plasma, iv, 1 mg/kg
Counter-ions that a name gives are not always drawn.
Assign labels as follows, please: T for concentration at 0.25 h below 400 ng/mL; F for concentration at 0.25 h equal to or exceeding 400 ng/mL.

Molecule	Label Value
N=C(N)c1cccc(CC(NS(=O)(=O)c2ccc3ccccc3c2)C(=O)N2CCC(C(=O)O)CC2)c1 (racemic)	T
N=C(N)c1cccc(CC(NS(=O)(=O)c2ccc3ccccc3c2)C(=O)N2Cc3ccccc3CC2C(=O)O)c1 (racemic)	F
N=C(N)c1cccc(C[C@H](NS(=O)(=O)c2ccc3ccccc3c2)C(=O)N2CCC[C@@H]2C(=O)O)c1 [Compound 123, hydrochloride]	F
NCc1cccc(CC(NS(=O)(=O)c2ccc3ccccc3c2)C(=O)N2CCC(C(=O)O)CC2)c1 (racemic)	F
N=C(NO)c1cccc(CC(NS(=O)(=O)c2ccc3ccccc3c2)C(=O)N2Cc3ccccc3CC2C(=O)O)c1 (racemic) [Compound 190, hydroiodide]	F
N=C(N)c1cccc(CC(NS(=O)(=O)c2ccc3ccccc3c2)C(=O)N2CCCCC2C(=O)O)c1 (racemic)	T

* * *

Listing of entries alongside the reported concentration at 5 min.
- Experiment: Plasma concentration in rats after intravenous administration (HPLC)
- Measurement Setup: rat, plasma, iv, 1 mg/kg
Counter-ions that a name gives are not always drawn.

Compound	concentration at 5 min / ng/mL
N=C(N)c1cccc(C[C@H](NS(=O)(=O)c2ccc3ccccc3c2)C(=O)N2CCC[C@@H]2C(=O)O)c1 [Compound 123, hydrochloride]	1180
N=C(N)c1cccc(CC(NS(=O)(=O)c2ccc3ccccc3c2)C(=O)N2CCCCC2C(=O)O)c1 (racemic) [Compound 83]	928
N=C(N)c1cccc(CC(NS(=O)(=O)c2ccc3ccccc3c2)C(=O)N2CCC(C(=O)O)CC2)c1 (racemic) [Compound 85]	1240
N=C(NO)c1cccc(CC(NS(=O)(=O)c2ccc3ccccc3c2)C(=O)N2Cc3ccccc3CC2C(=O)O)c1 (racemic) [Compound 190, hydroiodide]	1610
NCc1cccc(CC(NS(=O)(=O)c2ccc3ccccc3c2)C(=O)N2CCC(C(=O)O)CC2)c1 (racemic) [Compound 186]	1260
N=C(N)c1cccc(CC(NS(=O)(=O)c2ccc3ccccc3c2)C(=O)N2Cc3ccccc3CC2C(=O)O)c1 (racemic) [Compound 134]	1680

* * *

Listing of entries alongside the reported pKi.
- Target Entity: tPA (Homo sapiens)
- Sequence (P00750 36-562): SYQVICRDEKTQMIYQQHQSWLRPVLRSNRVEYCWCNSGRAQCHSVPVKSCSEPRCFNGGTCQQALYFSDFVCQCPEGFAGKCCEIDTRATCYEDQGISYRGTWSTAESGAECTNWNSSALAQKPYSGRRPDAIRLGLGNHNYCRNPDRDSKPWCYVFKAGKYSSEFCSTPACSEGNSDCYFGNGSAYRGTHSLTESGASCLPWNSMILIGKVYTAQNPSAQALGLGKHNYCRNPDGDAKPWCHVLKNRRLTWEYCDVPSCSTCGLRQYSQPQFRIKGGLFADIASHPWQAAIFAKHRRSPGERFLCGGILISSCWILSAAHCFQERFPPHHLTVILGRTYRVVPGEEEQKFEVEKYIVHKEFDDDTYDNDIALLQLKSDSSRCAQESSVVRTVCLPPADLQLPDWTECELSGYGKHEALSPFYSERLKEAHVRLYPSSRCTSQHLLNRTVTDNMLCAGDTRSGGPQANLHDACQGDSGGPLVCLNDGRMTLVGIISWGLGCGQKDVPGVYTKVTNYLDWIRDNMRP
pKi: −log10 of the molar value.

Compound	pKi
CC1CCN(C(=O)C(Cc2cccc(C(=N)N)c2)NS(=O)(=O)c2ccc3ccccc3c2)CC1 (racemic) [Compound 34]	3.34
COC(=O)[C@H](Cc1cccc(C(=N)N)c1)NC(=O)CNS(=O)(=O)c1ccc(C)cc1 [TAPAM, reference compound]	4.57
N=C(N)c1cccc(CC(NS(=O)(=O)c2ccc3ccccc3c2)C(=O)N2CCCCC2C(=O)O)c1 (racemic) [Compound 83]	3.69
